Each item that follows carries a reported Ki.
Target: human BChE (Homo sapiens)
Construct: human plasma BChE (Mechnikov Scientific Research Institute of Vaccines and Serums, St. Petersburg, Russia); purchased Mechnikov Scientific Research Institute of Vaccines and Serums, St. Petersburg, Russia; host or cells: human plasma (natural source)
Sequence (P06276 29-602): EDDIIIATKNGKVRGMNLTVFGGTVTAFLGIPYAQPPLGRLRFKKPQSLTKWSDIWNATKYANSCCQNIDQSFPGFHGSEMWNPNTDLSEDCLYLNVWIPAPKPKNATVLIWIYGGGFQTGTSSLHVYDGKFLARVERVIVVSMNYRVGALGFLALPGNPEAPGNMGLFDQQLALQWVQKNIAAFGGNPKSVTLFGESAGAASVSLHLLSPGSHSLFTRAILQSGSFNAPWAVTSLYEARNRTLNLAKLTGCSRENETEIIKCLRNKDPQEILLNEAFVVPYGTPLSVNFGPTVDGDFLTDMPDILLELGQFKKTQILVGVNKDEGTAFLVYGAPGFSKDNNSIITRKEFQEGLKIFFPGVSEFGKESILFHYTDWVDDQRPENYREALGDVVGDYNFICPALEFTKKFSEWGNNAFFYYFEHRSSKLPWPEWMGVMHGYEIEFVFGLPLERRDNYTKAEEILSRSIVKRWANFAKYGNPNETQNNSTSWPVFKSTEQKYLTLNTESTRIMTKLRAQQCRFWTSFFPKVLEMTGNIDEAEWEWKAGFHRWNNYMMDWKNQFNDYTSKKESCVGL
Assay: Inhibition of human plasma BChE, microplate Ellman method
Assay type: biochemical
Conditions: human plasma BChE (1:30 dilution), BTCh substrate, 37 °C; read-out: Ki
The figure you give is taken to be in µM; do not add the unit.

These solved cases illustrate the format of a correct answer.
The recorded Ki for `CCN(CC)CCNC(=O)n1c(=O)n(C(C)(C)C)c2ccccc21.Cl` is 1.7

`CCN(CC)CCNC(=O)n1c(=O)n(C(C)C)c2ccccc21` has a reported Ki of 15.2

Others:
For reference, reported Ki for `CCN(CC)CCNC(=O)n1c(=O)n(C(C)C)c2ccc(C(F)(F)F)cc21` stands at 4.5

response.value for `CCN(CC)CCNC(=O)n1c(=O)n(C2CC2)c2ccccc21` (field: Ki) = 16.2
